- System: SF-295 CNS
- experimentSummary: NCI tumour cell line growth inhibition, 48 h
Everything with TGI lower than 20 µM is false (0); everything else, including exactly 20 µM, is true (1).

>  <compound>
Nc1ccc(N=Nc2ccccc2)cc1

>  <target>
SF-295 CNS

>  <assignedClass>
true (1)

$$$$
>  <compound>
O=C(OCC1OC2OC(c3ccccc3)(n3ccc4c([N+](=O)[O-])ccnc43)OC2C1OC(=O)c1ccccc1)c1ccccc1 (stereo not given)

>  <target>
SF-295 CNS

>  <assignedClass>
true (1)

$$$$
>  <compound>
N#Cc1c(-c2ccccc2)nc(-c2ccccc2)sc1=S

>  <target>
SF-295 CNS

>  <assignedClass>
true (1)

$$$$
>  <compound>
CCC(C)(C)c1ccc(OCCCCCCN2CCNCC2)cc1

>  <target>
SF-295 CNS

>  <assignedClass>
false (0)

$$$$
>  <compound>
O=C1c2ccccc2-c2nc(-c3cccc([N+](=O)[O-])c3)nnc21

>  <target>
SF-295 CNS

>  <assignedClass>
true (1)

$$$$
>  <compound>
COc1ccc2c(c1)C(C)Cc1c(ncnc1-n1c(C)nc3ccccc31)N2C (stereo not given)

>  <target>
SF-295 CNS

>  <assignedClass>
false (0)

$$$$
>  <compound>
O=c1oc2ccccc2c(Nc2ccc3c(c2)Oc2ccccc2O3)c1[N+](=O)[O-]

>  <target>
SF-295 CNS

>  <assignedClass>
true (1)

$$$$
>  <compound>
COc1ccc2ncn(-c3cc(O[C@H](C)c4ccccc4Cl)c(C(N)=O)s3)c2c1

>  <target>
SF-295 CNS

>  <assignedClass>
false (0)

$$$$
>  <compound>
COc1cc2ccc3c4cc(OC)c(OC(C)C)cc4cnc3c2cc1OC

>  <target>
SF-295 CNS

>  <assignedClass>
true (1)

$$$$
>  <compound>
Cc1cn2c(/C=C3\C(=O)N(C)c4ccc(O)cc43)c(C)nc2s1

>  <target>
SF-295 CNS

>  <assignedClass>
true (1)

$$$$
